A collection of compounds and their measured relative cell count
# System: U-2 OS
# Test summary: relative cell count vs DMSO (cell painting) (fraction of DMSO control); higher = more cells remaining (less cytotoxic)
# Measurement context: 1.25 µM; 24 h
Output spec: single numeric token, no unit.

| Compound | relative cell count |
| --- | --- |
| O=NN(CCCl)C(=O)NCCCl | 0.934 |

Query string: So what's the measured relative cell count for this one? C=CC(=O)Nc1cccc(Nc2nc(Nc3ccc(Oc4ccnc(C(=O)NC)c4)cc3)ncc2F)c1
Result string: 0.96

Query string: For CN(C)C/C=C/C(=O)Nc1cc2c(Nc3ccc(F)c(Cl)c3)ncnc2cc1O[C@H]1CCOC1 , what is its reported relative cell count?
Result string: 0.955

Query string: May I ask what relative cell count has been recorded for O=S1(=O)C=Cc2ccccc21 ?
Result string: 0.994

Query string: Requested read-out: relative cell count. Entry: O=C1C(Cl)=C(NCCN2CCOCC2)C(=O)c2ncccc21
Result string: 0.755

Query string: Value lookup for relative cell count; key = Nc1nc(-c2ccccc2)ns1
Result string: 0.944

###

# System: U-2 OS
# Test summary: cell painting activity score (Mahalanobis distance from DMSO wells); higher = stronger morphological phenotype
# Measurement context: 1.25 µM; 24 h
Parameter: cell painting activity score
Form: value (number only, do not type unit).

Example cases with answers are listed next.
| Compound | cell painting activity score |
| --- | --- |
| Cn1ncnc2c(=O)n(C)c(=O)nc1-2 | 14 |
| O=C(CCCCCCC(=O)Nc1ccccc1)NO | 11.1 |

Query string: Given the entry N#CC(C#N)=NNc1cccc(Cl)c1 , report its measured cell painting activity score.
Result string: 5.02

Query string: For the compound CC1(C)[C@@H](O[C@H]2O[C@H](C(=O)O)[C@@H](O)[C@H](O)[C@H]2O[C@@H]2O[C@H](C(=O)O)[C@@H](O)[C@H](O)[C@H]2O)CC[C@]2(C)[C@H]3C(=O)C=C4[C@@H]5C[C@@](C)(C(=O)O)CC[C@]5(C)CC[C@@]4(C)[C@]3(C)CC[C@@H]12.N , what cell painting activity score is on record?
Result string: 5.25

Query string: Quick check: cell painting activity score of O=C(NNS(=O)(=O)c1ccccc1F)c1cc(F)cc(-c2ccccn2)c1 ?
Result string: 5.31

Query string: Recorded cell painting activity score for CC(C)(N=NC(C)(C)C(=N)N)C(=N)N.Cl.Cl , please?
Result string: 4.98

Query string: What value of cell painting activity score has been reported for the following compound? Oc1cccc(-c2nc(N3CCOCC3)c3oc4ncccc4c3n2)c1
Result string: 11.3

Query string: Data request, read-out cell painting activity score, for O=C(OC[C@H]1O[C@@H](OC(=O)c2cc(O)c(O)c(OC(=O)c3cc(O)c(O)c(O)c3)c2)[C@H](OC(=O)c2cc(O)c(O)c(OC(=O)c3cc(O)c(O)c(O)c3)c2)[C@@H](OC(=O)c2cc(O)c(O)c(OC(=O)c3cc(O)c(O)c(O)c3)c2)[C@@H]1OC(=O)c1cc(O)c(O)c(OC(=O)c2cc(O)c(O)c(O)c2)c1)c1cc(O)c(O)c(OC(=O)c2cc(O)c(O)c(O)c2)c1
Result string: 4.59

###

# cell painting activity score per record follows
# Test system: U-2 OS
# Test summary: cell painting activity score (Mahalanobis distance from DMSO wells); higher = stronger morphological phenotype
# Measurement context: 1.25 µM; 24 h
Reply with the value as a number alone.

Examples with their reported cell painting activity score follow.
| Compound structure string | Measured result |
| --- | --- |
| CC(C)C[C@@H](C=O)NC(=O)[C@H](CC(C)C)NC(=O)[C@H](CC(C)C)NC(=O)OCc1ccccc1 | 9.38 |
| Cn1nnnc1SC1=CS(=O)(=O)c2ccccc21 | 8.76 |
| Oc1cc(O)cc(/C=C/c2ccc(O)c(O)c2)c1 | 3.39 |
| O=S1(=O)CCc2ccccc21 | 3.74 |

Query string: Consider the molecule shown here: O=C(CBr)N1CC([N+](=O)[O-])([N+](=O)[O-])C1 What is its recorded cell painting activity score?
Result string: 7.38

Query string: Returns the measured cell painting activity score for the input molecule. Input: NC(=O)c1ccc(I)c([N+](=O)[O-])c1
Result string: 3.07

Query string: Look up cell painting activity score: COC(=O)c1ccc([C@H]2c3[nH]c4ccccc4c3C[C@H](C(=O)OC)N2C(=O)CCl)cc1
Result string: 10.7

Query string: Quick one: cell painting activity score of S=C(Nc1ccccc1)Nc1nc(-c2ccccc2)[n+](-c2ccccc2)s1 ?
Result string: 4.45

Query string: I have this molecule here, CC(C)C[C@H](NC(=O)[C@H](CCc1ccccc1)NC(=O)CN1CCOCC1)C(=O)N[C@@H](Cc1ccccc1)C(=O)N[C@@H](CC(C)C)C(=O)[C@@]1(C)CO1 , and I need its recorded cell painting activity score.
Result string: 31.9

Query string: Which cell painting activity score is reported for this molecule? CC(C)=C[C@@H]1CO[C@]23C[C@]4(CO2)[C@H](CC[C@@H]2[C@@]5(C)CC[C@H](O[C@@H]6OC[C@H](O)[C@H](O[C@@H]7O[C@H](CO)[C@@H](O)[C@H](O)[C@H]7O)[C@H]6O[C@@H]6O[C@@H](CO)[C@H](O)[C@H]6O)C(C)(C)[C@@H]5CC[C@]24C)[C@H]3[C@@]1(C)O
Result string: 4.19

Query string: Which measured cell painting activity score value corresponds to CCOc1cc2ncc(C#N)c(Nc3ccc(OCc4ccccn4)c(Cl)c3)c2cc1NC(=O)/C=C/CN(C)C ?
Result string: 11.4

Query string: Requested field: cell painting activity score. Item: C[C@H]1O[C@@H](O[C@H]2CC[C@@]3(C)[C@@H](CC[C@]4(C)[C@@H]3C=C[C@]35OC[C@@]6(CCC(C)(C)C[C@H]63)[C@@H](O)C[C@]54C)[C@]2(C)CO)[C@H](O)[C@@H](O[C@@H]2O[C@H](CO)[C@@H](O)[C@H](O)[C@H]2O)[C@H]1O
Result string: 6.79

Query string: I have this molecule here, C=CC(=O)N1CCC[C@@H](n2nc(-c3ccc(Oc4ccccc4)cc3)c3c(N)ncnc32)C1 , and I need its recorded cell painting activity score.
Result string: 6.98

Query string: Form field: reported cell painting activity score of C/C(=C\c1csc(C)n1)[C@@H]1C[C@@H]2O[C@]2(C)CCC[C@H](C)[C@H](O)[C@@H](C)C(=O)C(C)(C)[C@@H](O)CC(=O)O1
Result string: 20.7

Query string: Entry COc1ccc(/C(Cl)=C(\C=O)c2ccc(OC)cc2)cc1 : reported cell painting activity score = ?
Result string: 4.52

###

# System: U-2 OS
# Test summary: relative cell count vs DMSO (cell painting) (fraction of DMSO control); higher = more cells remaining (less cytotoxic)
# Measurement context: 1.25 µM; 24 h
Decision: relative cell count compared against 1; not below it gives Met, below it gives Not met.

Completed entries (count: 5):
| Compound | Class assignment |
| --- | --- |
| C=C(C)[C@H]1Cc2c(ccc3c2O[C@@H]2COc4cc(OC)c(OC)cc4[C@@H]2C3=O)O1 | Not met |
| COc1cc(/C=C/C(=O)CC(=O)/C=C/c2ccc(O)c(OC)c2)ccc1O | Not met |
| CC(C)(C)C1=CC(=O)C=CC1=O | Not met |
| C=CC(=O)Nc1ccc(CN2C(=O)N(c3cc(OC)cc(OC)c3)Cc3cnc(Nc4ccc(N5CCN(C)CC5)cc4)nc32)cc1 | Not met |
| CCN(CC)CCCC(C)Nc1ccnc2cc(Cl)ccc12 (configuration not stated) | Met |

Query string: Would you say CCC(=O)CCCCC[C@@H]1NC(=O)[C@H]2CCCCN2C(=O)[C@H]([C@@H](C)CC)NC(=O)[C@H](Cc2cn(OC)c3ccccc23)NC1=O shows relative cell count at minimum 1?
Result string: Not met

Query string: Would you say CCN1C(=O)C=CC1=O shows relative cell count at minimum 1?
Result string: Not met

Query string: Evaluate O=C(NNS(=O)(=O)c1ccccc1F)c1cc(F)cc(-c2ccccn2)c1 : relative cell count at minimum 1?
Result string: Not met

###

# Test system: U-2 OS
# Test summary: cell painting activity score (Mahalanobis distance from DMSO wells); higher = stronger morphological phenotype
# Measurement context: 2.5 µM; 24 h
Parameter: cell painting activity score
Respond numerically, and do not add a unit to the figure.

| Compound structure string | System name | cell painting activity score |
| --- | --- | --- |
| CC1(C)CC[C@]2(C(=O)O[C@@H]3O[C@H](CO)[C@@H](O)[C@H](O)[C@H]3O)CC[C@]3(C)C(=CC[C@@H]4[C@@]5(C)CC[C@H](O[C@@H]6O[C@H](C(=O)O)[C@@H](O)[C@H](O)[C@H]6O[C@@H]6O[C@H](CO)[C@@H](O)[C@H](O)[C@H]6O)C(C)(C)[C@@H]5CC[C@]43C)[C@@H]2C1 | U-2 OS | 5.42 |
| S=P(N1CC1)(N1CC1)N1CC1 | U-2 OS | 3.97 |
| O=S1(=O)CCc2ccccc21 | U-2 OS | 4.94 |
| CNC(=O)c1cc(Oc2ccc(NC(=O)Nc3ccc(Cl)c(C(F)(F)F)c3)cc2)ccn1 | U-2 OS | 10.3 |
| Nc1c[n+](N2CCOCC2)no1.[Cl-] | U-2 OS | 9.31 |
| Cc1ccc(S(=O)(=O)/C=C/C#N)cc1 | U-2 OS | 16.7 |

Query string: Any idea what cell painting activity score was measured for CC1=NN(c2ccc(C(=O)O)cc2)C(=O)/C1=C\c1ccc(-c2cc(C)c(C)cc2[N+](=O)[O-])o1 ?
Result string: 4.65

Query string: cell painting activity score for c1ccc(-c2noc(NC3CCCC3)n2)cc1 ?
Result string: 2.97

Query string: For the compound shown here, COC1=C(OC)C(=O)c2ccccc2C1=O , give the reported cell painting activity score.
Result string: 10.7
